Target: BRD3 BD1 (Homo sapiens, UniProt Q15059)
Construct: BRD2 BD1, BRD3 BD1 and BRD4 BD1 (Cisbio); purchased Cisbio
Sequence (Q15059 34-140 limits assumed): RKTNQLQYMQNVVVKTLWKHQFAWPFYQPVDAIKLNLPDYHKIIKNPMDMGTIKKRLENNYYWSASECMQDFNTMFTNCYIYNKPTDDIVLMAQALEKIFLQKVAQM
Assay: Binding assay, BRD3 BD1 to acetylated histone H4 Peptide-Biotin (EPIgeneous Binding Domain Kit A)
Settings: test compound at 300 nmol/L; read-out: Binding inhibition percentage BRD3 BD1
measuredParameter: inhibition at 0.3 µM (%)

compound	unitInfo	inhibition at 0.3 µM
CCn1c(=O)cc(N2CCOCC2)c2cc(-n3c(-c4ccc(C)cc4)cn(C)c3=O)ccc21	%	94
CCn1c(=O)cc(N2CCOCC2)c2cc(-n3c(-c4ccccc4)cn(CCO)c3=O)ccc21	%	94
CCn1cc(-c2ccccc2)n(-c2ccc3c(c2)c(N2CCOCC2)cc(=O)n3CC)c1=O	%	94

P. CCn1c(=O)cc(N2CCOCC2)c2cc(-n3c(-c4ccccc4)c[nH]c3=O)ccc21
Q. CCn1c(=O)cc(C2CC2)c2cc(-n3c(-c4ccc(C(F)(F)F)cc4)cn(C)c3=O)ccc21
QUERY: inhibition at 0.3 µM comparison. Which is larger, P or Q ? Returns: label corresponding to the selected item.
RESULT: P
(P: 94%, Q: 53%)

* * *

Molecular target: BRD2 BD2 (Homo sapiens)
Construct: BRD2 BD2, BRD3 BD2 and BRD4 BD2 (Cisbio); purchased Cisbio
Sequence (P25440 344-453 limits assumed): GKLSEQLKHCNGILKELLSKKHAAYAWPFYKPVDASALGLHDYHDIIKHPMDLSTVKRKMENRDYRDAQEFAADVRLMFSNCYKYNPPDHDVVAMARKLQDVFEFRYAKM
Experiment: Binding assay, BRD2 BD2 to acetylated histone H4 Peptide-Biotin (EPIgeneous Binding Domain Kit B)
Details: test compound at 300 nmol/L; read-out: Binding inhibition percentage BRD2 BD2
measuredParameter: inhibition at 0.3 µM (%)

CCn1c(=O)cc(N2CCOCC2)c2cc(-c3cnn(C)c3-c3ccccc3)ccc21 86
CCn1c(=O)cc(N2CCOCC2)c2cc(-c3cccnc3-c3ccccc3)ccc21 88
CCn1c(=O)cc(C2CC2)c2cc(-c3nc(C)[nH]c3-c3ccccc3)ccc21 86
CCn1c(=O)cc(N2CCOCC2)c2cc(-n3c(-c4ccccc4)cn(CCO)c3=O)ccc21 89
CCn1c(=O)cc(C2CC2)c2cc(-n3c(-c4ccc(C(F)(F)F)cc4)c[nH]c3=O)ccc21 86
CCn1c(=O)cc(C)c2cc(-c3cccnc3-c3ccccc3)ccc21 83
CCn1c(=O)cc(C2CC2)c2cc(-c3cccnc3-c3ccccc3)ccc21 89
CCn1c(=O)cc(C2CCN(C(=O)C(C)C)CC2)c2cc(C(=O)N(C)c3ccc(C)cc3)ccc21 71

* * *

Target: BRD2 BD1 (Homo sapiens)
Construct: BRD2 BD1, BRD3 BD1 and BRD4 BD1 (Cisbio); purchased Cisbio
Sequence (P25440 74-180 limits assumed): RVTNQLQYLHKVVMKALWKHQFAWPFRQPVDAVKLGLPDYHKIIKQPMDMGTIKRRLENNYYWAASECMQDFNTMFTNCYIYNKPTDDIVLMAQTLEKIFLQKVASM
Experiment: Binding assay, BRD2 BD1 to acetylated histone H4 Peptide-Biotin (EPIgeneous Binding Domain Kit A)
Conditions: test compound at 300 nmol/L; read-out: Binding inhibition percentage BRD2 BD1
measuredParameter: inhibition at 0.3 µM (%)

Solved entries (count: 2):
compound	assayResult
CCC1C(=O)N(c2ccccc2)N(c2ccc3c(c2)c(C2CC2)cc(=O)n3CC)C1=O (stereo not shown) [Example 281]	87
CCn1c(=O)cc(C2CC2)c2cc(-c3nc(C)nn3-c3ccccc3)ccc21 [Example 252]	82

a. CCn1c(=O)cc(C2CCN(C)CC2)c2cc(C(=O)N3CCCc4ccccc43)ccc21 [Example 11]
b. CCn1c(=O)cc(C2CC2)c2cc(-n3c(-c4ccc(C(F)(F)F)cc4)cn(C)c3=O)ccc21 [Example 267]
QUERY: Would you kindly point out which of a and b has the smaller inhibition at 0.3 µM figure? Returns: label corresponding to the selected item.
RESULT: b
(b: 32%, a: 94%)

A. CCn1c(=O)cc(N2CCOCC2)c2cc(-n3c(-c4ccc(C)cc4)cn(C)c3=O)ccc21 [Example 273]
B. CCn1c(=O)cc(C)c2cc(-c3cccnc3-c3ccccc3)ccc21 [Example 291]
QUERY: inhibition at 0.3 µM comparison. Which is larger, A or B ? Returns: label corresponding to the selected item.
RESULT: A

P. CCn1c(=O)cc(C2CC2)c2cc(N3C(=O)C(C)C(=O)N3c3ccccc3)ccc21 (stereo not shown) [Example 280]
Q. CCn1c(=O)cc(C2CC2)c2cc(-n3c(-c4ccc(C(F)(F)F)cc4)c[nH]c3=O)ccc21 [Example 268]
QUERY: Would you kindly point out which of P and Q has the smaller inhibition at 0.3 µM figure? Returns: label corresponding to the selected item.
RESULT: Q
(Q: 48%, P: 83%)

Cited source: patent US10987349B2
